FYI, the data here is from PubChem BioAssay (NCI).

Test system: MDA-MB-435
One label from this list, please: active, inactive

Example cases with answers are listed next.
CCc1ccccc1-n1c(N)c(C#N)c(-c2ccc(OC)c(OC)c2)c(C#N)c1=O    inactive
CSc1ccc(C2=NN(C(=O)c3ccc(N)cc3)C(c3ccc(F)cc3)C2)cc1 (stereo not given)    inactive

// next entry
Query :: Fill in: this test's call for COc1ccc(-n2sc(=O)n(Cc3ccc(COC(=O)C(C)c4ccc(CC(C)C)cc4)cc3)c2=O)cc1 (stereo not given) is ___
Result :: inactive

---

Tested on: SK-MEL-5 melanoma
Measurement Notes: NCI tumour cell line growth inhibition, 48 h
Hi there, I'd appreciate the recorded log10 of TGI for every entry that follows.
Note the log scale: values are log10 of TGI expressed in µM.

Example entries and their recorded answers appear below.
Cc1cc2c(cc1C)[n+]([O-])c(-c1c(Cl)cccc1Cl)c(N)[n+]2[O-]    1.62
O=C(NO)c1cnc(N2CCN(S(=O)(=O)c3ccc4ccccc4c3)CC2)nc1    -0.82
CCOC(=O)c1c(N2CCOCC2)[nH]c(=O)c(C(c2ccc(Cl)c([N+](=O)[O-])c2)c2c(O)c(C(=O)OCC)c(N3CCOCC3)[nH]c2=O)c1O    1.87
COc1cnc2c(c1)C(=O)c1c-2n(CCCN2CCN(CCO)CC2)c(=O)c2cc([N+](=O)[O-])ccc12    0.44
CC12OC3CC(O1)C1(C=O)C4CCC5(C)C(c6ccc(=O)oc6)CCC5(O)C4CCC1(C3)O2 (stereo not given)    -0.48

Please supply log10 of TGI for each of the following items, keeping them in order.
1. O=C(CCc1cccc(O)c1)NCCc1cccc(OCc2ccccc2)c1
2. COc1ccc2c(c1)c1c3c(ccc4ncn2c43)N(CCN(C)C)CCN=1
3. Cn1c2c(cc(-c3ccccc3)c1=O)COc1ccccc1-2
4. CCOc1ccc2c(c1)NC(=O)C(C1OC(c3ccccc3)=CC1=O)S2 (stereo not given)
5. COc1ccc2c(c1)CC[C@@H]1[C@@H]2CC[C@]2(C)[C@@H](O)/C(=C/c3ccncc3)C[C@@H]12
6. Cc1ccc(S(=O)(=O)NCCSS(=O)(=O)c2ccc(C)cc2)cc1

Result ::
[1.47, 0.36, 1.60, 1.59, 1.33, 1.63]
